Assay: in vitro
Details: human, liver microsomes
Note to self: values exactly at 40 µL/min/mg are class 1. So microsomal CLint at or above 40 µL/min/mg is class 1, below is class 0.

Example entries and their recorded answers appear below.
compound	answer.label
O=C(O)[C@@H](Cc1ccccc1)N1CCC(CN2CCC(Oc3ccc(Cl)c(Cl)c3)CC2)CC1	class 0
CCOC(=O)CN(c1ccccc1C)S(=O)(=O)c1ccc(Cl)cc1	class 1
Cc1ccc(F)c(Nc2ccnc(Nc3ccc(S(N)(=O)=O)cc3)n2)c1	class 0
CCCCc1nc2c(N)nc3ccccc3c2n1CC(C)(C)O	class 0
O=c1[nH]c2c(O)ccc([C@@H](O)CNCCc3cccc(CNCCc4c(Cl)cccc4Cl)c3)c2s1	class 1

Request: Form field: microsomal CLint at least 40 µL/min/mg? Entry: Cc1cc2cc(C)c3nnc(SCC(=O)N4CCN(C(=O)c5ccco5)CC4)n3c2cc1C
Result: class 1

Request: Check if microsomal CLint >= 40 µL/min/mg (inclusive). Item: CCCCN(CCNCCc1ccc(O)c2[nH]c(=O)sc12)C(=O)CCOCCc1ccccc1
Result: class 1
